src = patent US20210040118A1

Molecular target: PD-1/PD-L1 (Homo sapiens)
Construct: Recombinant human PD-L1 protein (19-238) with a His-tag at the C-terminus; purchased AcroBiosystems PD1-H5229 (PD-L1); PD1-H5257 (PD-1)
Sequence (Q9NZQ7 19-238): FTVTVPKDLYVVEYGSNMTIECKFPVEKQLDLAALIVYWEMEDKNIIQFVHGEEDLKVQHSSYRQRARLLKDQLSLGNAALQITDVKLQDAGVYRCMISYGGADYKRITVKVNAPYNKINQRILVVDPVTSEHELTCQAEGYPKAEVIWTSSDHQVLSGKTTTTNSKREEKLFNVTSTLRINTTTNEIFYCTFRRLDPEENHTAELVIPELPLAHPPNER
Assay: PD-1/PD-L1 homogenous time-resolved fluorescence (HTRF) binding assay
Details: recombinant human PD-L1 (19-238) His-tag / human PD-1 (25-167) Fc tag, class symbols
Experimental: Resolved Fluorescence (HTRF) Binding Assay The assays were conducted in a standard black 384-well polystyrene plate with a final volume of 20 μL. […] Before reading on a PHERAstar FS plate reader (665 nm/620 nm ratio). […] Data obtained for the Example compounds using the PD-1/PD-L1 homogenous time-resolved fluorescence (HTRF) binding assay described in Example A is provided in Table 4.
pIC50: −log10 of the molar value.
Consider the following compounds; for each one, report its pIC50.

Example cases with answers are listed next.
Cc1c(Nc2nccc3cc(CNCC(=O)O)cnc23)cccc1-c1cccc(Nc2nccc3cc(CN4CCC4)cnc23)c1C [Example 149] = > 7.60
CNC(=O)CN1CCc2nc(C(=O)N3CCc4c(-c5cccc6c5CCN6C(=O)c5nc6c(s5)CN(CC(=O)O)CC6)cccc43)sc2C1 [Example 108] = > 7.60
Cc1c(Nc2nccc3cc(CNC[C@@H](O)CC(=O)O)cnc23)cccc1-c1cccc(Nc2nccc3cc(CNC[C@@H](O)CC(=O)O)cnc23)c1C [Example 143] = > 7.60
COC(=O)NCCNCc1cnc2c(Nc3cccc(-c4cccc(Nc5nccc6cc(CNCCNC(=O)OC)cnc56)c4C)c3C)nccc2c1 [Example 158] = > 7.60

Turning to the following compound.
Cc1c(-c2cccc(N(C)C(=O)c3nc4c(s3)CNCC4)c2C)cccc1N(C)C(=O)c1nc2c(s1)CNCC2 [Example 23] yielded pIC50 of 6.70 to 7.00
